Parameter: MIC. Scope: all listed entries.
Test system: Mycobacterium tuberculosis H37Rv (ATCC 27294)
Test: TAACF MIC / primary screen vs M. tuberculosis H37Rv (MABA or BACTEC 460)
Format: cell-based
Conditions: Mycobacterium tuberculosis, M. tuberculosis assay, Table 13, primary screen; read-out: MIC

Example entries and their recorded answers appear below.
O=C(NNC(=S)Nc1ccccc1)c1ccncc1 = > 12.5 mg/L
CC(=O)N1N=C(c2ccncc2)OC1c1c(F)cccc1F (centres unmarked) = < 12.5 mg/L
CC(=O)N1N=C(c2ccncc2)OC1(C)c1ccccc1 (centres unmarked) = < 12.5 mg/L
CC(=O)N1N=C(c2ccncc2)OC1c1ccccc1[N+](=O)[O-] (centres unmarked) = > 12.5 mg/L

In the following, a different compound is considered.
Asked: Which MIC value is on record for CC(=O)N1N=C(c2ccncc2)OC1c1ccc(Cl)c([N+](=O)[O-])c1 (centres unmarked) ?
Given back: < 12.5 mg/L

====

Test system: Mycobacterium tuberculosis H37Rv (ATCC 27294)
Experiment: TAACF MIC / primary screen vs M. tuberculosis H37Rv (MABA or BACTEC 460)
Format: cell-based
Settings: M. tuberculosis assay, Table 13, primary screen
Parameter: % Inhibition. Scope: all listed entries.
Reply with just the number (in %).

Example entries and their recorded answers appear below.
CC(=O)N1N=C(c2ccncc2)OC1c1c(F)cccc1F (centres unmarked) = 99
CC(=O)N1N=C(c2ccncc2)OC1(C)c1ccccc1 (centres unmarked) = 98
CC(=O)N1N=C(c2ccncc2)OC1c1ccc(Cl)c([N+](=O)[O-])c1 (centres unmarked) = 98
O=C(NNC(=S)Nc1ccccc1)c1ccncc1 = 79

Asked: Query for Mycobacterium tuberculosis H37Rv (ATCC 27294): what % Inhibition does the record show for CC(=O)N1N=C(c2ccncc2)OC1c1ccccc1[N+](=O)[O-] (centres unmarked) ?
Given back: 38

====

Parameter: MIC. Scope: all listed entries.
System: Mycobacterium tuberculosis H37Rv (ATCC 27294)
Assay: TAACF MIC / primary screen vs M. tuberculosis H37Rv (MABA or BACTEC 460)
Format: cell-based
Details: Mycobacterium tuberculosis, Bactec, strain panel; read-out: MIC H37Rv

Example entries and their recorded answers appear below.
COc1ccc(/C=N/NC(=O)c2ccncc2)cc1 [Sample ID 102866] = < 0.05 µg/mL
O=C(N/N=C/c1cc(Cl)ccc1Cl)c1ccncc1 [Sample ID 117150] = < 0.05 µg/mL
O=C(N/N=C/C=C(c1ccccc1)c1ccccc1)c1ccncc1 [Sample ID 132532] = 0.1 µg/mL
CC1C/C(=N/NC(=O)c2ccncc2)CC(C)(C)C1 (stereo not drawn) [Sample ID 114353] = < 0.1 µg/mL
CCOC(=O)/C(CCc1ccccc1)=N\NC(=O)c1ccncc1 [Sample ID 132358] = 0.1 µg/mL

In the following, a different molecule is considered.
Asked: Query for Mycobacterium tuberculosis H37Rv (ATCC 27294): what MIC does the record show for CC(C)=CCCC(C)C/C=N/NC(=O)c1ccncc1 (stereo not drawn) [Sample ID 102044] ?
Given back: < 0.1 µg/mL

====

measurement_name: melting point

CCCC(=O)NNC(=O)c1ccncc1 = 142 °C
CCCCC(=O)NNC(=O)c1ccncc1 = 162 °C

Asked: Which melting point value is on record for `CC(=O)NNC(=O)c1ccncc1` ?
Given back: 158 to 160 °C

Asked: Which melting point value is on record for `O=CNNC(=O)c1ccncc1` ?
Given back: 94 to 96 °C
